- tgt: JNK3 (Homo sapiens, UniProt P53779)
- Sequence (P53779 whole entry): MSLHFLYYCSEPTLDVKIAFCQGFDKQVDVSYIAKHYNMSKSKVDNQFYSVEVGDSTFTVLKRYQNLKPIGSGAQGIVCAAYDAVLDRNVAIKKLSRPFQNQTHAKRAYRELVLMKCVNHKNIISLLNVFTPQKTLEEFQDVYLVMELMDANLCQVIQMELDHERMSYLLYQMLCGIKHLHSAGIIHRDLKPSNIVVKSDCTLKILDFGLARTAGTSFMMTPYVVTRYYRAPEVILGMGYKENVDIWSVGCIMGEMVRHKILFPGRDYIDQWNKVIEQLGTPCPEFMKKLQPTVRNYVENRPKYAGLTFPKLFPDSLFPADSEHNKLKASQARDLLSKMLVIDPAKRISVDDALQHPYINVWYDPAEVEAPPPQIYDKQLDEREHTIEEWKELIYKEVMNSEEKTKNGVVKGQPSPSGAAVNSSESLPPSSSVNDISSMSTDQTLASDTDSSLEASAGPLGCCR
- experiment summary: radiometric JNK3 activity assay at Eurofins Discovery
- Type: biochemical
- stated conditions: radiometric JNK3 activity assay
Catalogue of pIC50 readings, one per entry.
When answering, recall that pIC50 equals minus log10 of the concentration in mol/L, and write that number alone.

// below: answered compounds
[Q] For the compound shown here, CCC(=O)Nc1cccc(NC(=O)c2ccc(Nc3cc(-c4c(-c5ccc(F)cc5)nc(SC)n4C)ccn3)cc2)c1 , give the reported pIC50.
[A] 7.66

[Q] For the compound shown here, C=CC(=O)Nc1cccc(C(=O)Nc2ccc(Nc3cc(-c4c(-c5ccc(F)cc5)nc(SC)n4C)ccn3)cc2)c1 [compound 1, reference compound] , give the reported pIC50.
[A] 8.22

[Q] For the compound shown here, C=CC(=O)Nc1cccc(C(=O)N(C)c2ccc(Nc3cc(-c4c(-c5ccc(F)cc5)nc(SC)n4C)ccn3)cc2)c1 , give the reported pIC50.
[A] 7.85

[Q] For the compound shown here, CCC(=O)Nc1cccc(C(=O)N(C)c2ccc(Nc3cc(-c4c(-c5ccc(F)cc5)nc(SC)n4C)ccn3)cc2)c1 , give the reported pIC50.
[A] 7.62

Next:
[Q] For the compound shown here, C=CC(=O)Nc1cccc(NC(=O)c2ccc(Nc3cc(-c4c(-c5ccc(F)cc5)nc(SC)n4C)ccn3)cc2)c1 , give the reported pIC50.
[A] 7.89
